subject_of_test: CDK2 (Homo sapiens)
Construct: endogenous in cells; host or cells: OVCAR3 cells
test_protocol: Phospho-RB measurement in OVCAR3 cells (HTRF phospho-RB S807/811)
Format: cell-based
measurement_conditions: phosphorylation of RB protein at S807/811, HTRF, 24 h compound treatment, 0.3 to 10,000 nM, read-out: pRb (uM)
Description: The ability of compounds of Formula (I) to inhibit CDK2 was determined in OVCAR3 cells. Phosphorylation of RB protein at S807/811 were measured using HTRF phospho-RB cellular kits (Cat #64RBS807PEG) from Cisbio. […] Detection plates were incubated for 4 h at room temperature and read on ClarioStar (BMG Labtech) in TR-FRET mode ([…]). […] Half maximal inhibition concentration (IC50) values are calculated with a four-parameter logistic fit using GraphPad Prism (version 8; La Jolla, CA).
quantity_kind: IC50 (µM)
One number for each entry, in µM.

Past entries and their recorded results:
compound="COc1cccc(F)c1S(=O)(=O)Nc1cccc(-c2nc(C34CC(C3)C4)sc2-c2ccnc(NC3CC4(C3)CS(=O)(=O)C4)n2)c1F [Example 55]" subject_of_test="CDK2 (Homo sapiens)" quantity_kind=IC50 measured_number=1.35
compound="CC1(C)CCCN1c1nc(-c2cccc(NS(=O)(=O)c3c(F)cccc3F)c2F)c(-c2ccnc(NC3CC4(C3)CS(=O)(=O)C4)n2)s1 [Example 24]" subject_of_test="CDK2 (Homo sapiens)" quantity_kind=IC50 measured_number=1.46
compound="CC1(C)CCN1c1nc(-c2cccc(NS(=O)(=O)c3c(F)cccc3C(F)(F)F)c2F)c(-c2ccnc(N[C@@H]3[C@@H]4CS(=O)(=O)C[C@@H]43)n2)s1 [Example 120]" subject_of_test="CDK2 (Homo sapiens)" quantity_kind=IC50 measured_number=0.29
compound="O=S1(=O)CC2(CC(Nc3nccc(-c4sc(N5C6CCC5COC6)nc4-c4cccc(NS(=O)(=O)c5c(F)cccc5F)c4F)n3)C2)C1 [Example 2]" subject_of_test="CDK2 (Homo sapiens)" quantity_kind=IC50 measured_number=0.15
compound="O=S1(=O)C[C@@H]2[C@H](C1)[C@H]2Nc1nccc(-c2sc(N3C4CCC3CN(C3CCC3)C4)nc2-c2cccc(NS(=O)(=O)c3c(F)cccc3C(F)(F)F)c2F)n1 [Example 131]" subject_of_test="CDK2 (Homo sapiens)" quantity_kind=IC50 measured_number=0.12
compound="O=S1(=O)CC2(CC(Nc3nccc(-c4sc(C56CC(C(F)F)(C5)C6)nc4-c4cccc(NS(=O)(=O)c5c(F)cccc5C(F)(F)F)c4F)n3)C2)C1 [Example 92]" subject_of_test="CDK2 (Homo sapiens)" quantity_kind=IC50 measured_number=0.04
compound="CN1CC2CCC(C1)N2c1nc(-c2cccc(NS(=O)(=O)c3c(F)cccc3F)c2F)c(-c2ccnc(NC3CC4(C3)CS(=O)(=O)C4)n2)s1 [Example 135]" subject_of_test="CDK2 (Homo sapiens)" quantity_kind=IC50 measured_number=0.07
compound="O=S1(=O)CC2(CC(Nc3nccc(-c4sc(C56CC(C(F)(F)F)(C5)C6)nc4-c4cccc(NS(=O)(=O)c5c(F)cccc5F)c4F)n3)C2)C1 [Example 39]" subject_of_test="CDK2 (Homo sapiens)" quantity_kind=IC50 measured_number=0.35

Here are 2 compounds. What values of IC50 were reported for them?
1. O=S1(=O)CC2(CC(Nc3nccc(-c4sc(C5(C(F)(F)F)CCC5)nc4-c4cccc(NS(=O)(=O)c5c(F)cccc5C(F)(F)F)c4F)n3)C2)C1 [Example 84]
2. O=S1(=O)C[C@@H]2[C@H](C1)[C@H]2Nc1nccc(-c2sc(C34CC(C3)C4)nc2-c2cccc(NS(=O)(=O)c3c(F)cccc3C(F)(F)F)c2F)n1 [Example 103]

[0.03, 0.1]
